# Protocol: Steady-state intracellular uptake in VERO-E6 cells
# Format: in vitro ADME
# Stated conditions: African green monkey, VERO-E6 cells; VERO-E6, 60 min incubation, 50 μM at t = 0; read-out: Kp (intracellular accumulation ratio IC/EC)
The entries below come with measured Kp at 1 h, 50 µM values attached.
Please give the numeric answer without any surrounding text.

**Q:** Tell me the measured Kp at 1 h, 50 µM of COc1ccc(S(=O)(=O)N(C)C[C@H]2O[C@@H](n3cc(C#Cc4cccnc4)c4c(N)ncnc43)[C@H](O)[C@@H]2O)cc1C#N [Compound 12s] , please.
**A:** 5210

**Q:** I am curious: what Kp at 1 h, 50 µM value has been reported for CCN(C[C@H]1O[C@@H](n2cc(C#Cc3ccc(C(N)=O)cc3)c3c(N)ncnc32)[C@H](O)[C@@H]1O)S(=O)(=O)c1ccc(OC)c(C#N)c1 [Compound 12o] ?
**A:** 247
